molecular target: protein kinase D2 (PKD2) (Homo sapiens, UniProt Q9BZL6); experiment: IMAP fluorescence polarization kinase assay, peptide substrate phosphorylation
Sequence (Q9BZL6 whole entry): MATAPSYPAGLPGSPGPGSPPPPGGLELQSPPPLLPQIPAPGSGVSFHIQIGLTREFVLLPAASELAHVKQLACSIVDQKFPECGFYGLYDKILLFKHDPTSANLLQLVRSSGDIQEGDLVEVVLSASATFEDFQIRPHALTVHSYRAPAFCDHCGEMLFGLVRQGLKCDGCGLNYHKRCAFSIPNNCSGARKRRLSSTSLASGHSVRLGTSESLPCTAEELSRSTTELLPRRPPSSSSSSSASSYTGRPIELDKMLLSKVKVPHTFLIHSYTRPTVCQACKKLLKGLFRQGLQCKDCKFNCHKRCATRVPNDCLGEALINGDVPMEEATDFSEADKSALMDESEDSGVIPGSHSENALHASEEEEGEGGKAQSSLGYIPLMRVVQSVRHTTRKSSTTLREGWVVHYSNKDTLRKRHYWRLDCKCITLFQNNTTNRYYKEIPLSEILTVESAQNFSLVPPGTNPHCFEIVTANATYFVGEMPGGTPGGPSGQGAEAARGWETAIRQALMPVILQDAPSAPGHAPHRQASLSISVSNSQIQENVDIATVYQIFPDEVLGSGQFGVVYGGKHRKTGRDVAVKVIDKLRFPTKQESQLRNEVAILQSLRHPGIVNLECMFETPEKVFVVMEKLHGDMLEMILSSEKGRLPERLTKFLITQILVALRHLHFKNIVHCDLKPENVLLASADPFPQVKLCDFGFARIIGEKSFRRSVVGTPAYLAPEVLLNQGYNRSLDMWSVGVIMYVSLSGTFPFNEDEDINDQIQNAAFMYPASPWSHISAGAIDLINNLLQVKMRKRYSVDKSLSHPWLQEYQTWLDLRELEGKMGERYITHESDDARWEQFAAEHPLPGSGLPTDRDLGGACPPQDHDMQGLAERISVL
Observed Property: IC50 (nM)
// note: answer is a bare numeric in nM

Task item: Any idea what IC50 was measured for CC[C@@H](N)CNc1ccnc(-c2cc(-c3cnn(C)c3)ccc2O)n1 [CRT0066101] ?
Reply: 2.5
